Assay: NCI Yeast Anticancer Drug Screen. Data for the cln2 rad14 strain (AID 165);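 note: 0% = growth equal to vehicle treated cultures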
Settings: S. cerevisiae cln2 rad14 strain, at 50.0 µM, stronger effect = higher value
Protocol: Growth inhibition of yeast strains with defined genetic alterations is measured as a screen for potential anti-cancer activity. Selected strains with alterations in DNA damage repair or cell cycle control were exposed to compounds and growth inhibition was measured relative to vehicle treated controls. The strain used in this assay is cln2 rad14
About 79,000 compounds went through this panel and 15% of them were active in at least one assay; those are over-represented in the sample as a whole.
Assay metric: growth inhibition (%)
Give the number; % is assumed, so skip it.

I have this molecule here, CC1=NC2=NC(CCCC(=O)OCc3ccc(Cl)c(Cl)c3)=NC3=CC=CC(=N1)N32 , and I need its recorded growth inhibition.
41

Value lookup for growth inhibition; key = COc1ccc(C2COc3cc(O)c(O)cc3C2)cc1 (stereo not drawn)
99.6

What value of growth inhibition has been recorded for this entry: C[n+]1c(-c2ccc(/C=C/C=N\NC(=O)c3ccc(C(=O)N/N=C\C=C\c4ccc(-c5cn6ccccc6[n+]5C)cc4)cc3)cc2)cn2ccccc21
96.3

Reported growth inhibition for O=c1cc(-c2ccccc2)[nH]c2ccc(N3CCCC3)cc12 : what is it?
7.25

Quick one: growth inhibition for Cc1cc(-c2ccccc2)nc2nc3ccccc3n12 ?
-30.7

Dear colleague, I am looking for the recorded growth inhibition of the following molecule: O=C(NNS(=O)(=O)c1ccccc1)Nc1ccccc1
3.8

Looking for the measured growth inhibition of CSc1nc(=S)c2[nH]c(C)nc2[nH]1 , can you help?
98.5

What measured growth inhibition goes with Nc1n[n+](-c2ccccc2)no1 ?
23

What value of growth inhibition has been reported for the following molecule? CN(C)c1ccc(N=Nc2cccc3ccccc23)cc1
50.2

Would you mind telling me what growth inhibition value was observed for CCN(CC)CC(C)(C)C(=O)/C=C/c1ccc(Cl)c(Cl)c1 ?
89.2

Given the entry CN(C)CCNc1ccc(O)c2sc3ccccc3c(=O)c12 , report its measured growth inhibition.
30.6

Looking for the measured growth inhibition of Cc1cc(Cl)c2c(c1)C(=N/O)/C(=C\c1ccco1)O2 , can you help?
88

I would be grateful if you could share the reported growth inhibition for Cc1ccc(/C=C/C(=O)c2cc(CN(C)C)c(O)c(CN(C)C)c2)cc1 .
55.6

What does the record list as growth inhibition for CC1(C(Cl)(Cl)Cl)C=CC(O)(C#CC2(O)C=CC(C)(C(Cl)(Cl)Cl)C=C2)C=C1 (stereo not drawn) ?
95.7

Which measured growth inhibition value corresponds to Cc1cc(N/N=C/c2cccc3ccccc23)c2cc3c(cc2n1)OCO3 ?
97.8

Item Cc1c(C#N)c(N)nc2c(C(N)=O)nsc12 has what recorded growth inhibition?
53.6

Look up growth inhibition for this molecule: O=C(O)c1c2c(cc3c1CC1(Cc4cc5c(cc4C1=O)CCC5)C3)CCC2 (stereo not drawn)
88.7

Value lookup for growth inhibition; key = CC(=O)ON=C1C=CC(=C(C#N)c2ccccc2)C=C1
98.2

Need growth inhibition, item c1cc(C2=NCCN2)ccc1Nc1ccc(-c2cc3ccc(C4=NCCN4)cc3[nH]2)cc1
98.9

# query: growth inhibition of entry CN(C)c1c([N+](=O)[O-])cc(N2C(=O)C=CC2=O)cc1[N+](=O)[O-]
90.8

Please report the recorded growth inhibition for O=C(O)CCCc1ccc2c(c1Br)C=CC2 .
72.9

Look up growth inhibition: OC(c1cc2ccccc2o1)c1cc2ccccc2s1 (stereo not drawn)
61.6

Tell me the measured growth inhibition of CCc1ccccc1NC(=O)C1=C(C)NC(C)=C(C(=O)Nc2c(CC)cccc2CC)C1c1ccc2c(c1)OCO2 (stereo not drawn) , please.
85.8
